TARGET_OR_TEST_SYSTEM: stress-activated protein kinase 2a (Homo sapiens, UniProt Q16539)
Sequence (Q16539 whole entry): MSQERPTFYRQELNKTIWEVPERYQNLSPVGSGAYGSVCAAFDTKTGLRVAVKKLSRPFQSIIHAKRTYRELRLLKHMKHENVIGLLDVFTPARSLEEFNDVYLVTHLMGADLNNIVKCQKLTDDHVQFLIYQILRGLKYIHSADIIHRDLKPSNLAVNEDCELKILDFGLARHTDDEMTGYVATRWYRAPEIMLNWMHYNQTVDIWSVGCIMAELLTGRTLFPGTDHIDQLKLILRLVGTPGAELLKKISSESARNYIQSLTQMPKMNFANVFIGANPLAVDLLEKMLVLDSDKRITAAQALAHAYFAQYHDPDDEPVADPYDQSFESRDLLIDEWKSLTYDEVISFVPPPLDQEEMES
ASSAY_METHOD_TEXT: Kinase specificity assay SAPK2a
EXPERIMENTAL_CONDITIONS: Table 2
PROPERTY: IC50 (µM)
The figure you give is taken to be in µM; do not add the unit.

Query :: Provide IC50 value for the following molecule: "Cc1nc(C)c(-c2ccnc(Nc3ccc(N(C)C)c(Cl)c3)n2)s1"
Result :: 86

---

TARGET_OR_TEST_SYSTEM: CDK4/cyclin D1 (Homo sapiens, UniProt P11802)
Sequence (P11802 whole entry): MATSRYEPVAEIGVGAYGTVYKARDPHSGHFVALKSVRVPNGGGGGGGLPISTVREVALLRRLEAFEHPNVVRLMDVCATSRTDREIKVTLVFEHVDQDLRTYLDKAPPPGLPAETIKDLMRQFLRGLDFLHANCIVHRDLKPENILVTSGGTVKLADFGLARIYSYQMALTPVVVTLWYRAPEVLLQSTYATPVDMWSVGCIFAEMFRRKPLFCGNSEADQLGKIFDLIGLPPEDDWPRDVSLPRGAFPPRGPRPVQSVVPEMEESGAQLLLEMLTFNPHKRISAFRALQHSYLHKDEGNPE
Sequence (P24385 whole entry partner): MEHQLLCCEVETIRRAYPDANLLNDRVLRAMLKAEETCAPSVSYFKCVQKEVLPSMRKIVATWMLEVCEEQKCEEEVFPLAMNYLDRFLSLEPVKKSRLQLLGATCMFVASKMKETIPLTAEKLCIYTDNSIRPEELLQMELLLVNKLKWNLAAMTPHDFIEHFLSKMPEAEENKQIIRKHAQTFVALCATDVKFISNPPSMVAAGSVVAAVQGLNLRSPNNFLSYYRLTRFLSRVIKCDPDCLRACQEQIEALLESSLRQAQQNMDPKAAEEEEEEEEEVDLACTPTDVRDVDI
ASSAY_METHOD_TEXT: Kinase assay CDK4/cyclin D1;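 note: Enzyme: His6-tagged recombinant human CDK4 produced in baculovirus-infected Sf9 insect cells and purified by metal-chelate chromatography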
EXPERIMENTAL_CONDITIONS: read-out: Kinase inhibition, IC50 (μM) CDK4/D1; Table 1
Quick rule for you: IC50 under 4 µM gets class 1, anything else gets class 0.

Query :: Below 4 µM on IC50? Entry "COc1ccc(Nc2nccc(-c3sc(C)nc3C)n2)cc1OC"
Result :: class 1

Query :: Below 4 µM on IC50? Entry "Cc1nc(C)c(-c2ccnc(Nc3ccc(CCO)cc3)n2)s1"
Result :: class 1

Query :: Below 4 µM on IC50? Entry "COc1ccc(Nc2nccc(-c3sc(C)nc3C)n2)cc1O"
Result :: class 1

Query :: Below 4 µM on IC50? Entry "Cc1cc(Nc2nccc(-c3sc(=O)n(C)c3C)n2)ccc1Cl"
Result :: class 0

Query :: Below 4 µM on IC50? Entry "Cc1nc(N)sc1-c1ccnc(Nc2ccc(C(F)(F)F)cc2)n1"
Result :: class 0

Query :: Below 4 µM on IC50? Entry "Cc1nc(N)sc1-c1ccnc(Nc2cccc(Cl)c2)n1"
Result :: class 1

---

Each entry below carries its recorded IC50.
Tested on: A549
ASSAY_METHOD_TEXT: 72-h MTT cytotoxicity assay, A549
Assay type: cell-based, human
EXPERIMENTAL_CONDITIONS: Homo sapiens, A549, read-out: 72-h MTT in vitro IC50 (μM) A549; Table 1; 72 h
The figure you give is taken to be in µM; do not add the unit.

Sample records with IC50:
{"COMPOUND": "Cc1nc(N)sc1-c1ccnc(Nc2ccc(I)c([N+](=O)[O-])c2)n1 [Compound 14]", "PROPERTY": "IC50", "READOUT_NUMBER": 0.29}
{"COMPOUND": "Cc1nc(NC(=O)CCl)sc1-c1ccnc(Nc2cccc([N+](=O)[O-])c2)n1 [Compound 60]", "PROPERTY": "IC50", "READOUT_NUMBER": 0.15}

Query :: Provide IC50 value for the following compound: Cc1nc(N)sc1-c1ccnc(Nc2cccc(Br)c2)n1 [Compound 16]
Result :: 0.82

---

TARGET_OR_TEST_SYSTEM: extracellular-signal-regulated kinase 2 (Homo sapiens, UniProt P28482)
Sequence (P28482 whole entry): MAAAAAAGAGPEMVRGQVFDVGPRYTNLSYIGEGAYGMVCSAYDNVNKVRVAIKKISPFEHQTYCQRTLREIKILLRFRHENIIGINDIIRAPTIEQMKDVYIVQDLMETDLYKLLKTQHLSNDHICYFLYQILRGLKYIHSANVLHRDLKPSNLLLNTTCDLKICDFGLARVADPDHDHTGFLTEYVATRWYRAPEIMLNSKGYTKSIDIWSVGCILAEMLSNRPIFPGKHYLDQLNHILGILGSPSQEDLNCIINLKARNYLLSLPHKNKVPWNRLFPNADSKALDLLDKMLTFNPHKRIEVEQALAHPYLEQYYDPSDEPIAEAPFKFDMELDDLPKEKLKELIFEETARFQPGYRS
ASSAY_METHOD_TEXT: Kinase specificity assay ERK-2
EXPERIMENTAL_CONDITIONS: Table 2
PROPERTY: IC50 (µM)
The figure you give is taken to be in µM; do not add the unit.

Query :: Recall the reported IC50 of "Cc1nc(C)c(-c2ccnc(Nc3ccc(N(C)C)c(Cl)c3)n2)s1" when tested on extracellular-signal-regulated kinase 2 (Homo sapiens, UniProt P28482).
Result :: 20

---

TARGET_OR_TEST_SYSTEM: CDK4/cyclin D1 (Homo sapiens)
ASSAY_METHOD_TEXT: Kinase assay CDK4/cyclin D1
EXPERIMENTAL_CONDITIONS: Kinase inhibition, IC50 (μM) CDK4/D1, Table 1
PROPERTY: IC50 (µM)
The figure you give is taken to be in µM; do not add the unit.

Query :: Recall the reported IC50 of "Cc1nc(N(C)C)sc1-c1ccnc(Nc2cccc([N+](=O)[O-])c2)n1" when tested on CDK4/cyclin D1 (Homo sapiens).
Result :: 10
